target: furin, P09958; assay: furin cleavage Z-score vs untreated control; higher = more cleavage, active = 3.5 or more, inactive = 1 or less, 8 variable residues between constant flanks; conditions: 7.5 min;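 also: purified furin at 1:10 enzyme:substrate in 50 mM HEPES pH 7.5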
Sequence (P09958 whole entry): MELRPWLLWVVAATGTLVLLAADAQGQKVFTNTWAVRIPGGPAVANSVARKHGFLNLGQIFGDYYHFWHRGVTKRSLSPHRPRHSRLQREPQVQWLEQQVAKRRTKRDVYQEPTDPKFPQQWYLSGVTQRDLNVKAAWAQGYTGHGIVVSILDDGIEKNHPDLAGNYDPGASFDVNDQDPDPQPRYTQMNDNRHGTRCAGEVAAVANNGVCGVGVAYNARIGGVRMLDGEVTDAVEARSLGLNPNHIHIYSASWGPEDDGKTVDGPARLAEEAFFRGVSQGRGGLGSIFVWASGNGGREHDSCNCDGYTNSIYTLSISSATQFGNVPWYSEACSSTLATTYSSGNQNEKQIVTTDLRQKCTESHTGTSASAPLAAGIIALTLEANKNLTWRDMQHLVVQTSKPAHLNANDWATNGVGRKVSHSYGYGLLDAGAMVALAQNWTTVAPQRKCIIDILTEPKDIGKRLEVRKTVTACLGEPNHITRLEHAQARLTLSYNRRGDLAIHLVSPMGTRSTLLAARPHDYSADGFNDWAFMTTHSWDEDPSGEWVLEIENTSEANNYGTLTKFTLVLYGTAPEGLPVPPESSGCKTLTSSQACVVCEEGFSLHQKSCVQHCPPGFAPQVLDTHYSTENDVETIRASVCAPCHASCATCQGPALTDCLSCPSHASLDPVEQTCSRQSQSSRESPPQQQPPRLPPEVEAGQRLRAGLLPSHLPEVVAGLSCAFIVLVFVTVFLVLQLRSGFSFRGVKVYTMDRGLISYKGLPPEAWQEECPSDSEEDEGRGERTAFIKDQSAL
Some of the results follow. The true hit rate is not given.
Just give me one of these, please: y = active, n = inactive

Below are worked cases with known answers.
CAPSRRRKREAGNASASA [FS-1385]: y
CAPSPEFFTEAGNASASA [HC1219]: n
CAPTRRRWREAGNASASA [FS-1386]: y
CAEVAERKREAGNASASA [FS-1195]: n
CALAGLSTLPAGNASASA [HC1048]: n
CASKSRSSRSAGNASASA [FS-501]: y

Now turn to the next sequence.
Dear all, I need the recorded test outcome for CAEYVTSTWVAGNASASA [HC2169] , thank you.
n
